Let's look at some compounds and their measured solubility kinetic.
- Particulars: buffer; pH 7.4; 200.0 µM

{"columns": ["Compound", "solubility kinetic"],
 "data": [
  ["CCCCOc1ccc(C(=O)NCCc2ccccc2)cc1", "< 0.6 µg/mL"],
  ["CC(=O)Oc1ccc(-c2csc(Nc3cccc(C)n3)n2)cc1", "< 0.2 µg/mL"],
  ["O=C(c1ccc([N+](=O)[O-])cc1)N1CCN(C(=O)c2ccco2)CC1", "> 49.4 µg/mL"],
  ["COc1ccc(NS(=O)(=O)c2cc(NC(=O)c3ccccn3)ccc2OC)cc1Br", "3.4 µg/mL"],
  ["CNC(=S)Nc1ccc([N+](=O)[O-])c(C)c1", "32.3 µg/mL"],
  ["N/C(=N\\OC(=O)c1ccc(F)cc1)c1cccc([N+](=O)[O-])c1", "2.3 µg/mL"],
  ["FC(F)(F)c1ccnc(NCc2ccco2)n1", "9.2 µg/mL"],
  ["O=C(N/C(=C\\c1ccco1)C(=O)N1CCOCC1)c1ccco1", "> 47.4 µg/mL"],
  ["O=C(Nc1cccc(F)c1)N1CCCCCC1", "> 35.4 µg/mL"],
  ["O=C(Cc1ccc(O)cc1)N/N=C/c1cccnc1", "> 38.3 µg/mL"],
  ["Cc1noc(C)c1C(=O)OCC(=O)Nc1c(F)cccc1F", "24 µg/mL"],
  ["Cc1nc2ccc(NC(=O)CCC3CCCC3)cc2s1", "8.9 µg/mL"],
  ["CC(=O)Nc1ccc(CNC(=O)C[N+]2(C)CCOCC2)cc1.[Cl-]", "46.2 µg/mL"],
  ["CCOc1ccccc1NC(=O)NC1CCCCCCC1", "0.4 µg/mL"],
  ["O=C(NCc1ccco1)Nc1ccc([N+](=O)[O-])cc1", "16.5 µg/mL"],
  ["O=C(Nc1ccc2[nH]c(=O)[nH]c2c1)Nc1ccc(F)cc1F", "3.7 µg/mL"],
  ["O=C(CSc1ccc(-c2ccncc2)nn1)N1CCCC1", "> 45.1 µg/mL"],
  ["CC(=O)NC(=S)Nc1ccc(NC(=O)c2cccnc2)cc1", "10.2 µg/mL"],
  ["Cc1c(Cl)cnc(NC(=O)COC(=O)[C@@H](NC(=O)c2ccco2)C(C)C)c1Cl", "> 64.2 µg/mL"],
  ["C/C=C/C=C(/NC(=O)c1ccccc1)C(=O)Nc1ccccc1", "2.3 µg/mL"],
  ["CC(C)(C)OC(=O)NC1CC2CCCC(C1)N2Cc1ccccc1 (centres undefined)", "> 49.6 µg/mL"],
  ["CN(C)C(=S)c1ccccc1", "21.4 µg/mL"],
  ["CCOc1ccc(C(=O)CCC(=O)N2CCN(c3ccccc3O)CC2)cc1", "2.2 µg/mL"],
  ["COc1ccccc1NC(=O)c1ccc(-c2ccccc2[N+](=O)[O-])o1", "1.6 µg/mL"]
]}

Where do these numbers come from? They come from PubChem BioAssay AID1996.
